# TARGET_UNDER_TEST: Cytochrome P450 1A2 (Homo sapiens)
# ASSAY_TEXT: Cytochrome panel assay with activity outcomes
# CONDITIONS: recombinant CYP, pro-luciferin dealkylation, luminescence, p450-cyp1a2; series mostly up to 57.1 µM
The campaign covered roughly 16,000 compounds. About 5,700 (36%) were called active. Roughly 24% stayed inconclusive and do not appear here. Calls come from the whole dose curve; as a rule, active = well fitted curve in the direction sought with a large enough effect; inconclusive = small, poorly fitted or top-dose-only effect, or effect the other way; inactive = no such curve, though single readings can be large or run the other way. The list shows a part of the results.
Respond only with the outcome that fits, drawn from yes for active, no for inactive

> print(dat)
                                   compound  class.label
1  COc1cccc(OCC(=O)NN=C2c3ccccc3-c3ccccc32)c1          yes

Name the outcome recorded for "CC(C)(Oc1ccc(Cl)cc1)C(=O)Nc1ccncc1" in the assay.
yes

Name the outcome recorded for "COc1cccc(-c2nc(NCCc3c[nH]c4ccc(OC)cc34)c3ccccc3n2)c1" in the assay.
yes

Name the outcome recorded for "COc1ccc2[nH]cc(CCNc3nc(-c4ccccc4OC)nc4ccccc34)c2c1" in the assay.
yes

Name the outcome recorded for "COC(=O)[C@@]1(Cc2ccc(OC)cc2)[C@H]2c3cc(C(=O)N4CCCC4)n(CCc4c[nH]c5ccc(O)cc45)c3C[C@H]2CN1C(=O)c1ccccc1" in the assay.
no

Name the outcome recorded for CCOC(=O)C1=NOC(CNC(=O)C2=NOC(CNC(=O)c3c(-c4ccccc4Cl)noc3C)C2)C1 (stereo not given) in the assay.
no

Name the outcome recorded for "CCn1c(=O)[nH]c2ccccc2c1=O" in the assay.
yes

---

# TARGET_UNDER_TEST: Cytochrome P450 1A2 (Homo sapiens) (UniProt P05177)
# Sequence (P05177 whole entry, looked up): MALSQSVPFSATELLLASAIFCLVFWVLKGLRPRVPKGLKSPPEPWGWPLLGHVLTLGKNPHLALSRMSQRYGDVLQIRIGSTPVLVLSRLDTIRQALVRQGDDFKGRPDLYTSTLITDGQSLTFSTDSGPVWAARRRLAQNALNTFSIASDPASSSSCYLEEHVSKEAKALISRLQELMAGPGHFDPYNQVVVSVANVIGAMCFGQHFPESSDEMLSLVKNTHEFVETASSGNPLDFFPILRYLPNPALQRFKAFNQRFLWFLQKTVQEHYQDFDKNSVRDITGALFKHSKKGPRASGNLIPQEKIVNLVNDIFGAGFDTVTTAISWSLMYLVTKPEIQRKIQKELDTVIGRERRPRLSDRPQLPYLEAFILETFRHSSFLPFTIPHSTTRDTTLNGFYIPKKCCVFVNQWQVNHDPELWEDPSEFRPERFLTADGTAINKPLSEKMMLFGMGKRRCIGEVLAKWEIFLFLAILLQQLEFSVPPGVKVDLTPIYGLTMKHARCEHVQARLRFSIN
# ASSAY_TEXT: Cytochrome panel assay with activity outcomes
# CONDITIONS: recombinant CYP, pro-luciferin dealkylation, luminescence, p450-cyp1a2; series mostly up to 57.1 µM
The whole screen tested about 16,000 compounds, of which about 5,700 (36%) were called active. About 24% were inconclusive and are not listed. The call rests on the fitted dose curve; in most records, active means well fitted curve in the direction sought with a large enough effect; inconclusive means small, poorly fitted or top-dose-only effect, or effect the other way; inactive means no such curve, though single readings can be large or run the other way. Some of the results follow.
Respond only with the outcome that fits, drawn from y for active, n for inactive

> print(dat)
                                    compound  class.label
 1           CCN(/C=N/c1sc2c(c1C#N)CCCCC2)CC            y
 2  O=C(NCc1ccccc1)C(c1ccc(F)cc1)N(Cc1ccco1)C(=O)c1ccccn1 (configuration not stated)            n
 3  O=C(c1ccco1)N(CCC(c1ccccc1)c1ccco1)Cc1ccco1 (configuration not stated)            y
 4    COC(=O)Nc1nc2ccc(C(=O)c3cccs3)cc2[nH]1            y
 5     C[C@@H](C(=O)O)c1ccc(C(=O)c2cccs2)cc1            n
 6          COC(=O)Nc1nc2ccc(SC(C)C)cc2[nH]1            y
 7            CCc1ccc(CSc2nccn2-c2ccccc2)cc1            y
 8  Clc1ccc(C(c2nnnn2C2CCCC2)N2CCN(Cc3ccncc3)CC2)cc1 (configuration not stated)            y
 9         CCCN(/C=N/c1sc2c(c1C#N)CCCCC2)CCC            y
10  NC(=O)CC(c1ccccc1)c1ccco1 (configuration not stated)            n

Name the outcome recorded for "COc1ccc(/C=C/C(=O)Nc2cc(C(F)(F)F)ccc2Cl)cc1" in the assay.
y

Name the outcome recorded for "COCc1nc2c([nH]1)c(=O)n(C)c(=O)n2CC(C)C" in the assay.
y

Hello, the source for this data is PubChem BioAssay AID1851, in case you need it.
